Assay: Myorelaxant effect in oxytoxin-induced Wistar rat uterus smooth muscle assessed as residual contractile activity by continuous superfusion of oxytocin at 10 uM
Type: functional
Threshold-based label: Activity under 90% gives Fulfilled, Activity not under 90% gives Not fulfilled.

>>> grouplabel("Cc1ccc2c(c1)S(=O)(=O)N=C(C(=O)NC1CC(C)(C)Oc3ccc(Br)cc31)N2 (centres undefined)")
"Fulfilled"
>>> grouplabel("CC(N/C(=N\\C#N)Nc1ccncc1)C(C)(C)C (centres undefined) [PINACIDIL ANHYDROUS]")
"Fulfilled"
>>> grouplabel("CC1=Nc2ccc(Cl)cc2S(=O)(=O)N1 [DIAZOXIDE]")
"Not fulfilled"
>>> grouplabel("CC1(C)CC(NC(=O)C2=NS(=O)(=O)c3ccccc3N2)c2cc(Br)ccc2O1 (centres undefined)")
"Fulfilled"
>>> grouplabel("Cc1ccc2c(c1)S(=O)(=O)N=C(C(=O)NC1CC(C)(C)Oc3ccc([N+](=O)[O-])cc31)N2 (centres undefined)")
"Not fulfilled"
>>> grouplabel("Cc1ccc2c(c1)S(=O)(=O)N=C(C(=O)NC1CC(C)(C)Oc3ccc(F)cc31)N2 (centres undefined)")
"Not fulfilled"
>>> grouplabel("CC1(C)CC(NC(=O)C2=NS(=O)(=O)c3ccccc3N2)c2cc([N+](=O)[O-])ccc2O1 (centres undefined)")
"Not fulfilled"
>>> grouplabel("CC1(C)CC(NC(=O)C2=NS(=O)(=O)c3ccccc3N2)c2cc(F)ccc2O1 (centres undefined)")
"Not fulfilled"
>>> grouplabel("CC1(C)CC(NC(=O)C2=NS(=O)(=O)c3cc(Cl)ccc3N2)c2cc([N+](=O)[O-])ccc2O1 (centres undefined)")
"Not fulfilled"

The reported measurements were obtained from ChEMBL document CHEMBL2040802.
